target: Glutamate NMDA receptor; test: Tested in vitro for the antagonistic activity electrophysiologically against NMDA using rat cortical wedge preparation; type: functional
Attribute Measured: IC50 (µM)
Just the number in µM, nothing appended.

Quick one: give measured IC50 for NC(Cc1c(C(=O)O)on(Cc2ccccc2)c1=O)C(=O)O (stereo unspecified)
704

----------
biological target: Glutamate receptor ionotropic, AMPA (Rattus norvegicus, UniProt P19490+P19491+P19492+P19493); experiment: Agonistic activity electrophysiologically against AMPA using rat cortical wedge preparation
Provide the recorded log10(EC50) for the entries that follow.
Lab note - EC50 converted to log10 from values in µM.

Give a short answer stating reported log10(EC50) for C=CCOc1noc(C(=O)O)c1CC(N)C(=O)O (centres undefined) .
1.60

Tell me log10(EC50) reported for CCCOc1noc(C(=O)O)c1CC(N)C(=O)O (centres undefined)
1.90

Report log10(EC50) for CC(C)Oc1noc(C(=O)O)c1CC(N)C(=O)O (centres undefined)
1.57

Give the value of log10(EC50) reported for the following: CCCCCOc1noc(C(=O)O)c1CC(N)C(=O)O (centres undefined)
3.00

Return log10(EC50) (reported value) for this compound: CCOc1noc(-c2nn[nH]n2)c1CC(N)C(=O)O (centres undefined)
3.30

Please give measured log10(EC50) of the following entry: C/C=C/COc1noc(C(=O)O)c1CC(N)C(=O)O (centres undefined)
2.70

Identify measured log10(EC50) corresponding to COc1noc(C(=O)O)c1CC(N)C(=O)O (centres undefined)
0.08

Input CCCCOc1noc(C(=O)O)c1CC(N)C(=O)O (centres undefined) , output reported log10(EC50).
2.61

Please supply the value of reported log10(EC50) for the item CCOc1noc(C(=O)O)c1CC(N)C(=O)O (centres undefined)
0.68

----------
Task for the reader: assign each of the following compounds its reported pIC50.
molecular target: Glutamate receptor ionotropic, kainate; experiment: Inhibition of [3H]-Kainic acid binding to rat brain membranes.
pIC50: −log10 of the molar value.

Report measured pIC50; entry is Cn1oc(C(=O)O)c(CC(N)C(=O)O)c1=O (stereo unspecified)
< 4.00

Please give measured pIC50 of the following entry: C=CCOc1noc(C(=O)O)c1CC(N)C(=O)O (stereo unspecified)
< 4.00

Give pIC50 for the following compound: NC(Cc1c(O)noc1C(=O)O)C(=O)O (stereo unspecified)
< 4.00

Look up and report measured pIC50 for this entry: CC(C)Oc1noc(C(=O)O)c1CC(N)C(=O)O (stereo unspecified)
< 4.00

Kindly indicate its recorded pIC50. Item: CCCCOc1noc(C(=O)O)c1CC(N)C(=O)O (stereo unspecified)
< 4.00

Look up and state reported pIC50 for CCOc1noc(-c2nn[nH]n2)c1CC(N)C(=O)O (stereo unspecified)
< 4.00

Entry COc1noc(C(=O)O)c1CC(N)C(=O)O (stereo unspecified) needs its pIC50 filled in; supply it.
< 4.00

Give the value of pIC50 reported for the following: C/C=C/COc1noc(C(=O)O)c1CC(N)C(=O)O (stereo unspecified)
< 4.00

Tell me its pIC50 given CCOc1noc(C(=O)O)c1CC(N)C(=O)O (stereo unspecified) as the entry.
< 4.00

Retrieve pIC50 measured for NC(Cc1c(OCc2ccccc2)noc1C(=O)O)C(=O)O (stereo unspecified) and print it.
< 4.00

Indicate its recorded pIC50; the compound in question is CCCCCOc1noc(C(=O)O)c1CC(N)C(=O)O (stereo unspecified)
< 4.00

Read off the recorded pIC50 for CCOc1noc(C(=O)O)c1C/N=c1\c(O)c(O)c1=N
< 4.00

Could you please provide reported pIC50 for CCCOc1noc(C(=O)O)c1CC(N)C(=O)O (stereo unspecified) ? Thanks!
< 4.00

Determine from records and report pIC50 for NC(Cc1c(C(=O)O)on(Cc2ccccc2)c1=O)C(=O)O (stereo unspecified)
< 4.00

Kindly indicate its recorded pIC50. Item: CCOc1noc(-c2nc[nH]n2)c1CC(N)C(=O)O (stereo unspecified)
< 4.00

Identify measured pIC50 corresponding to CCn1oc(C(=O)O)c(CC(N)C(=O)O)c1=O (stereo unspecified)
< 4.00
